This section presents compounds with their documented Tmax values.
- measurement.notes: Intranasal triptans with alkylsaccharide in rats, plasma levels by HPLC
- Type: in vivo
- stated.conditions: Naratriptan 0.22 mg/kg intranasal; alkylsaccharide 0.1%

compound: CCCCCCCCCCCCCO[C@@H]1O[C@H](CO)[C@@H](O[C@H]2O[C@H](CO)[C@@H](O)[C@H](O)[C@H]2O)[C@H](O)[C@H]1O [tridecyl maltoside, tridecyl-β-D-maltoside]
Tmax: ~5 to 15 min

Query: What value of Tmax has been recorded for this entry: CCCCCCCCCCO[C@@H]1O[C@H](CO)[C@@H](O[C@H]2O[C@H](CO)[C@@H](O)[C@H](O)[C@H]2O)[C@H](O)[C@H]1O [decyl maltoside, decyl-β-D-maltoside]
Result: ~60 to 120 min

Query: Quick check: Tmax of CCCCCCCCCCCCO[C@@H]1O[C@H](CO)[C@@H](O[C@H]2O[C@H](CO)[C@@H](O)[C@H](O)[C@H]2O)[C@H](O)[C@H]1O [dodecyl maltoside] ?
Result: ~5 to 15 min

Query: Data request, read-out Tmax, for CCCCCCCCCCCCCCO[C@@H]1O[C@H](CO)[C@@H](O[C@H]2O[C@H](CO)[C@@H](O)[C@H](O)[C@H]2O)[C@H](O)[C@H]1O [tetradecyl maltoside]
Result: ~5 to 15 min

Query: Report Tmax for CCCCCCCCO[C@@H]1O[C@H](CO)[C@@H](O[C@H]2O[C@H](CO)[C@@H](O)[C@H](O)[C@H]2O)[C@H](O)[C@H]1O [octyl maltoside, Octyl-β-D-maltoside] please.
Result: ~60 to 120 min

====

- measurement.notes: Intranasal triptans with alkylsaccharide in rats, plasma levels by HPLC
- Assay type: in vivo
- stated.conditions: Naratriptan 0.22 mg/kg intranasal; alkylsaccharide 0.1%
measurement.name: Ratio Cmax(alkylsacch)/Cmax(No alkylsacch)

molecule: CCCCCCCCCCCCCO[C@@H]1O[C@H](CO)[C@@H](O[C@H]2O[C@H](CO)[C@@H](O)[C@H](O)[C@H]2O)[C@H](O)[C@H]1O [tridecyl maltoside, tridecyl-β-D-maltoside]
result: ≧1.5
//
molecule: CCCCCCCCCCO[C@@H]1O[C@H](CO)[C@@H](O[C@H]2O[C@H](CO)[C@@H](O)[C@H](O)[C@H]2O)[C@H](O)[C@H]1O [decyl maltoside, decyl-β-D-maltoside]
result: ≧1.5
//
molecule: CCCCCCCCCCCCO[C@@H]1O[C@H](CO)[C@@H](O[C@H]2O[C@H](CO)[C@@H](O)[C@H](O)[C@H]2O)[C@H](O)[C@H]1O [dodecyl maltoside]
result: ≧1.5
//
molecule: CCCCCCCCCCCCCCO[C@@H]1O[C@H](CO)[C@@H](O[C@H]2O[C@H](CO)[C@@H](O)[C@H](O)[C@H]2O)[C@H](O)[C@H]1O [tetradecyl maltoside]
result: ≧1.5

For the next question, use this molecule.
Query: Form field: reported Ratio Cmax(alkylsacch)/Cmax(No alkylsacch) of CCCCCCCCO[C@@H]1O[C@H](CO)[C@@H](O[C@H]2O[C@H](CO)[C@@H](O)[C@H](O)[C@H]2O)[C@H](O)[C@H]1O [octyl maltoside, Octyl-β-D-maltoside]
Result: ≦1.5

====

- measurement.notes: Intranasal triptans with alkylsaccharide in rats, plasma levels by HPLC
- Type: in vivo
- stated.conditions: Sumatriptan 6.2 mg/kg intranasal; alkylsaccharide 0.05%
measurement.name: Tmax

Consider the worked cases shown below.
compound: CCCCCCCCCCCCCO[C@@H]1O[C@H](CO)[C@@H](O[C@H]2O[C@H](CO)[C@@H](O)[C@H](O)[C@H]2O)[C@H](O)[C@H]1O [tridecyl maltoside, tridecyl-β-D-maltoside]
measurement.name: Tmax
result: ~5 to 15 min
--
compound: CCCCCCCCCCO[C@@H]1O[C@H](CO)[C@@H](O[C@H]2O[C@H](CO)[C@@H](O)[C@H](O)[C@H]2O)[C@H](O)[C@H]1O [decyl maltoside, decyl-β-D-maltoside]
measurement.name: Tmax
result: ~60 to 120 min
--
compound: CCCCCCCCCCCCCCO[C@@H]1O[C@H](CO)[C@@H](O[C@H]2O[C@H](CO)[C@@H](O)[C@H](O)[C@H]2O)[C@H](O)[C@H]1O [tetradecyl maltoside]
measurement.name: Tmax
result: ~5 to 15 min
--
compound: CCCCCCCCCCCCO[C@@H]1O[C@H](CO)[C@@H](O[C@H]2O[C@H](CO)[C@@H](O)[C@H](O)[C@H]2O)[C@H](O)[C@H]1O [dodecyl maltoside]
measurement.name: Tmax
result: ~5 to 15 min

// next item, Tmax requested
Query: Data request, read-out Tmax, for CCCCCCCCO[C@@H]1O[C@H](CO)[C@@H](O[C@H]2O[C@H](CO)[C@@H](O)[C@H](O)[C@H]2O)[C@H](O)[C@H]1O [octyl maltoside, Octyl-β-D-maltoside]
Result: ~60 to 120 min

====

Overview of reported Tmax across a group of compounds:
- measurement.notes: Intranasal triptans with alkylsaccharide in rats, plasma levels by HPLC
- Assay type: in vivo
- stated.conditions: Naratriptan 0.22 mg/kg intranasal; alkylsaccharide 0.5%

compound: CCCCCCCCCCCCCO[C@@H]1O[C@H](CO)[C@@H](O[C@H]2O[C@H](CO)[C@@H](O)[C@H](O)[C@H]2O)[C@H](O)[C@H]1O [tridecyl maltoside, tridecyl-β-D-maltoside]
Tmax: ~5 to 15 min
//
compound: CCCCCCCCCCO[C@@H]1O[C@H](CO)[C@@H](O[C@H]2O[C@H](CO)[C@@H](O)[C@H](O)[C@H]2O)[C@H](O)[C@H]1O [decyl maltoside, decyl-β-D-maltoside]
Tmax: ~5 to 15 min
//
compound: CCCCCCCCCCCCCCO[C@@H]1O[C@H](CO)[C@@H](O[C@H]2O[C@H](CO)[C@@H](O)[C@H](O)[C@H]2O)[C@H](O)[C@H]1O [tetradecyl maltoside]
Tmax: ~5 to 15 min
//
compound: CCCCCCCCO[C@@H]1O[C@H](CO)[C@@H](O[C@H]2O[C@H](CO)[C@@H](O)[C@H](O)[C@H]2O)[C@H](O)[C@H]1O [octyl maltoside, Octyl-β-D-maltoside]
Tmax: ~60 to 120 min

Consider the additional compound presented here.
Query: Endpoint output: Tmax of CCCCCCCCCCCCO[C@@H]1O[C@H](CO)[C@@H](O[C@H]2O[C@H](CO)[C@@H](O)[C@H](O)[C@H]2O)[C@H](O)[C@H]1O [dodecyl maltoside] . Value?
Result: ~5 to 15 min

====

- measurement.notes: Intranasal triptans with alkylsaccharide in rats, plasma levels by HPLC;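 also: rats in groups of eight given 20 µL into one nostril, dose expressed as triptan free base, Cmax and Tmax read from plasma concentration–time curves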
- Format: in vivo
- stated.conditions: Rizatriptan […] intranasal; alkylsaccharide 0.05%
measurement.name: Tmax

Example compounds with recorded Tmax:
compound: CCCCCCCCCCO[C@@H]1O[C@H](CO)[C@@H](O[C@H]2O[C@H](CO)[C@@H](O)[C@H](O)[C@H]2O)[C@H](O)[C@H]1O [decyl maltoside, decyl-β-D-maltoside]
Tmax: ~60 to 120 min

compound: CCCCCCCCCCCCO[C@@H]1O[C@H](CO)[C@@H](O[C@H]2O[C@H](CO)[C@@H](O)[C@H](O)[C@H]2O)[C@H](O)[C@H]1O [dodecyl maltoside]
Tmax: ~5 to 15 min

Query: Quick one: Tmax of CCCCCCCCCCCCCO[C@@H]1O[C@H](CO)[C@@H](O[C@H]2O[C@H](CO)[C@@H](O)[C@H](O)[C@H]2O)[C@H](O)[C@H]1O [tridecyl maltoside, tridecyl-β-D-maltoside] ?
Result: ~5 to 15 min

Query: Endpoint output: Tmax of CCCCCCCCCCCCCCO[C@@H]1O[C@H](CO)[C@@H](O[C@H]2O[C@H](CO)[C@@H](O)[C@H](O)[C@H]2O)[C@H](O)[C@H]1O [tetradecyl maltoside] . Value?
Result: ~5 to 15 min

Query: Tmax; subject: CCCCCCCCO[C@@H]1O[C@H](CO)[C@@H](O[C@H]2O[C@H](CO)[C@@H](O)[C@H](O)[C@H]2O)[C@H](O)[C@H]1O [octyl maltoside, Octyl-β-D-maltoside]
Result: ~60 to 120 min
